Reported Average OD (450 nm) values follow for various binders
Target: T1, human IL2Rα Fc fusion protein (human, UniProt P01589 22-213, limits assumed)
T1 construct: also called CD25; not shown: Fc part
T1 sequence (looked up): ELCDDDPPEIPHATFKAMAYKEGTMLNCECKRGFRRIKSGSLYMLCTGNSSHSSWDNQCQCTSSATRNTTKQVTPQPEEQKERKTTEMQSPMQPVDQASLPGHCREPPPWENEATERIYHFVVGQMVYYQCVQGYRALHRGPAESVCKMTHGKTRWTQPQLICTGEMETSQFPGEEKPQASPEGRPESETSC
Assay: ELISA on coated receptor-Fc, anti-His detection, single point 10 µM
Give the quantity in OD450, number only.

The cases that follow already have their Average OD (450 nm) on record.
{"columns": ["binder", "quantitative.result"],
 "data": [
  ["EP671, EP575 back-mutation clone (ligand, Mammalian-produced, His-tagged) APASSSTKKTQLQLEHLLLDLQMILNGINNYKNPLLTDMLTRKFYMPKKATELKHLQCLEEELKPLEEVLNLAQSKNFHLRPKGLIGDINNIVLALKGSETTFMCEYADETATIVEFLNRWITFSQSIISTLT", 0.082],
  ["EP658, EP575 back-mutation clone (ligand, Mammalian-produced, His-tagged) APASSSTKKTQLQLEHLLLDLQMILNGINNYKNPLLTDMLTRKFYMPKKATELKHLQCLEEELKPLEEVLNLAQSKNFHLRPRGLISDISNIVLALKGSETTFMCEYADETATIVEFLNRWITFSQSIISTLT", 0.12],
  ["EP675, EP575 back-mutation clone (ligand, Mammalian-produced, His-tagged) APASSSTKKTQLQLEHLLLDLQMILNGINNYKNPLLTDMLTRKFYMPKKATELKHLQCLEEELKPLEEVLNLAQSKNFHLRNKGLISNISNIVLALKGSETTFMCEYADETATIVEFLNRWITFSQSIISTLT", 0.084]
]}

Query: What value of Average OD (450 nm) has been reported for the following binder? EP575, mammalian cell-produced (ligand, also called 2021EP16-D09) APASSSTKKTQLQLEHLLLDLQMILNGINNYKNPLLTDMLTRKFYMPKKATELKHLQCLEEELKPLEEVLNLAQSKNFHLRNKGILGDISNIVLALKGSETTFMCEYADETATIVEFLNRWITFSQSIISTLT
Response: 0.113

Query: Find the recorded Average OD (450 nm) belonging to EP661, EP575 back-mutation clone (ligand, Mammalian-produced, His-tagged) APASSSTKKTQLQLEHLLLDLQMILNGINNYKNPLLTDMLTRKFYMPKKATELKHLQCLEEELKPLEEVLNLAQSKNFHLRPKGLISNISNIVLALKGSETTFMCEYADETATIVEFLNRWITFSQSIISTLT and report it.
Response: 0.11

Query: Would you kindly share the measured Average OD (450 nm) for EP662, EP575 back-mutation clone (ligand, Mammalian-produced, His-tagged) APASSSTKKTQLQLEHLLLDLQMILNGINNYKNPLLTDMLTRKFYMPKKATELKHLQCLEEELKPLEEVLNLAQSKNFHLRPKGLISDINNIVLALKGSETTFMCEYADETATIVEFLNRWITFSQSIISTLT ?
Response: 0.083

Query: Name the reported Average OD (450 nm) value associated with the binder EP668, EP575 back-mutation clone (ligand, Mammalian-produced, His-tagged) APASSSTKKTQLQLEHLLLDLQMILNGINNYKNPLLTDMLTRKFYMPKKATELKHLQCLEEELKPLEEVLNLAQSKNFHLRPRGLIGDISNIVLALKGSETTFMCEYADETATIVEFLNRWITFSQSIISTLT
Response: 0.113

Query: // query Average OD (450 nm) value for entry EP669, EP575 back-mutation clone (ligand, Mammalian-produced, His-tagged) APASSSTKKTQLQLEHLLLDLQMILNGINNYKNPLLTDMLTRKFYMPKKATELKHLQCLEEELKPLEEVLNLAQSKNFHLRPKGLISDISNIVLALKGSETTFMCEYADETATIVEFLNRWITFSQSIISTLT
Response: 0.082

Query: Consider the binder shown here: EP665, EP575 back-mutation clone (ligand, Mammalian-produced, His-tagged) APASSSTKKTQLQLEHLLLDLQMILNGINNYKNPLLTDMLTRKFYMPKKATELKHLQCLEEELKPLEEVLNLAQSKNFHLRNRGLISDINNIVLALKGSETTFMCEYADETATIVEFLNRWITFSQSIISTLT What is its recorded Average OD (450 nm)?
Response: 0.077

Values compiled from patent US20250326813A1.
